src = the supplement of paper PMC9170038

test system: MS2 coat protein; test: apparent KD of MS2 coat protein; designed switch direction (-1 OFF switch, 1 ON switch): -1; higher = weaker reporter binding; settings: input ligand: FMN 200 uM
So I've got a bunch of sequences here, and I need their apparent KD of MS2 coat protein values.
Give bare numbers, in nM.

{"columns": ["Query sequence", "Assay value"],
 "data": [
  ["CGAUCACAUGAGGAUCACCCAUGUGAGGAUAUAAUAACGCGGCGUGAGCACGGGAAUUUUAGAAGGCACACGGU [Eternabot (Original) Solution 42] (Eterna round: R97, puzzle: Exclusion 1)", 14.2]
]}

Report apparent KD of MS2 coat protein for each item below.
1. UGAUCAGACCGAGGAUAUAUAUGGAGGACGCACGUGAGUGCGUCCACUACAUGAGGAUCACCCAUGUAGAAGGCGGUCUGAUCU [JL ENG2 1.98] (Eterna round: R96, puzzle: Exclusion NG 2)
2. AGAGUGCUGCGAGGAUAUACAUGAGGAUCACCCAUGUUUACCUGUGAGGCAAAGCCUCACAGGUUGUAGAAGGCGCAGUACUCA [Mat - Exclusion NG 2 - Mod of JL - D42] (Eterna round: R96, puzzle: Exclusion NG 2)
3. GUCAGCUCGUGAGGAUAUAUAUAUACAUGAGGAUCACCCAUGUUAGAUCAGCUUCGGCAGUAUAUAUAGAAGGCACGAGCUGAC [ENG2/15-A1] (Eterna round: R96, puzzle: Exclusion NG 2)

A.
1: 26.2; 2: 9.39; 3: 345

Please state apparent KD of MS2 coat protein for every sequence in the list that follows.
1. GCAGAUGAAGUGAGGAUAUGCUCUACCUCGGUAGAGCAGAAGGCACAUGAGGAUCACCCAUGUGAUUCAUCUGC [Omei Ex4B B6] (Eterna round: R97, puzzle: Brourd's mod of Exclusion 4)
2. GUUCUUCCUGUGAGGAUAUCCAUGUGUCGGUGUGUGGAGAAGGUACAUGAGGAUCACCCAUGUCACCCGCGUUA (Eterna round: R97, puzzle: Brourd's mod of Exclusion 4)
3. UAUUAGCAAGUGAGAUCCGACAUGAGGAUCACCCAUGUGCUCGUCUUAUAAGCUAAUAUAAGAAAACUUAUAUUAGC [Elimod 7 - Jieux - Sensor, turn-off variant 1] (Eterna round: R97, puzzle: Sensor, turn-off variant 1)
4. UUUGUACAUGAGGAUCACCCAUGUCAGGAUAUGUCAUCGCCGUUUCCCAGCCGGCGUCACAGAAGGGACAUGCA [EX1 C.5] (Eterna round: R97, puzzle: Exclusion 1)
5. CCGAAAAGGAAGGAUAUGCUUGACGAAAGUCAAGCAGAAGGUCCUACAUGAGGAUCACCCAUGUGGUCCUUCGG [Mat - Exclusion 6 - Eli Mod - D36] (Eterna round: R97, puzzle: Exclusion 6)

A.
1: 35.4; 2: 24.3; 3: 242; 4: 56.6; 5: 629
